- System: UACC-62 melanoma
- test name: NCI-60 one-dose screen, 48 h
- condition summary: 10 µM unless noted
This is part of a sample that, as a whole, favours compounds with a hit. Of some 83,000 tested, about 20% had one in any assay. Activity calls are given as the source filed them. Rule for the calls: active = growth percent below 10; inactive = the rest.
Give your call using only these classes: active, inactive

CC1=CC[C@@H]2C(C)(C)[C@@H](O)CC[C@@]2(C)[C@@H]1COc1ccc2ccc(=O)oc2c1    inactive
FC(F)(F)c1ccc2c(c1)Sc1ccccc1N2    inactive
Cn1cc(-c2noc(C(=O)c3cn(C)c4ncccc34)n2)c2ccccc21    inactive
CCOC(=O)c1cc(C#N)n2ncc3ccccc3c12    inactive
Brc1ccc2c(c1)CN(C1CCCCC1)CO2    inactive
Fc1cc2[nH]ncc2c2c3c(c(-c4cn[nH]c4C(F)(F)F)nc12)C1CCC3C1 (stereo not given)    active

Task: Would you mind telling me which call this test gave CCOc1ccc(S(=O)(=O)Nc2ccc3c(c2)N(S(=O)(=O)CC)CCC3)cc1 ?
Result: inactive

Task: Would you mind telling me which call this test gave CCOC(=O)c1nc2c3ccccc3ccn2c1C(=O)OC ?
Result: inactive

Task: Would you mind telling me which call this test gave CC(C)[C@H]1CCC2=C3CC[C@]45OC(=O)[C@@]6(CCC(C)(C)C[C@H]64)CC[C@@]5(C)[C@]3(C)CC[C@@]21C ?
Result: inactive

Task: Would you mind telling me which call this test gave O=c1[nH]cnc2c1ccn2C1OC(CO)C(O)C1O (stereo not given) ?
Result: inactive

FYI, the data here is from PubChem BioAssay (NCI).
